- Test system: biotinyl-Leu-oxazolone
- protocol-text: self-aminoacylation, catalytic enhancement (BLO) (fold over background); higher = more active; k-Seq, kA / k0A0; sequences stand for … in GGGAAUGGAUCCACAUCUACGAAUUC…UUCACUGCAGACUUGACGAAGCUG
Variants at the floor of the assay were thinned out.
Given measured self-aminoacylation, output met if it is greater than or equal to 2 and not met if not.

- seq-string: "AUUACCCUGGUAAUCGAGUGA [Fam2.1 aminoacylation ribozyme variant]"
  tested-target: "biotinyl-Leu-oxazolone"
  class-label: "met"
- seq-string: "AAUCACCUACGUCAUCGGGUG [Fam2.2 aminoacylation ribozyme variant]"
  tested-target: "biotinyl-Leu-oxazolone"
  class-label: "met"
- seq-string: "AUGCACCUAAGUCAUCGGGUG [Fam2.2 aminoacylation ribozyme variant]"
  tested-target: "biotinyl-Leu-oxazolone"
  class-label: "met"
- seq-string: "AGUACCCUGGUCCUCGAGUGA [Fam2.1 aminoacylation ribozyme variant]"
  tested-target: "biotinyl-Leu-oxazolone"
  class-label: "met"
- seq-string: "AUUCAACUAGGUCAUAGGGUG [Fam2.2 aminoacylation ribozyme variant]"
  tested-target: "biotinyl-Leu-oxazolone"
  class-label: "met"
- seq-string: "UCUACCCUGGUCAUCGAGUGA [Fam2.1 aminoacylation ribozyme variant]"
  tested-target: "biotinyl-Leu-oxazolone"
  class-label: "met"
- seq-string: "AUUCACCUCGGUCAUAGGGUG [Fam2.2 aminoacylation ribozyme variant]"
  tested-target: "biotinyl-Leu-oxazolone"
  class-label: "not met"
- seq-string: "AUUCACCUAGGUCAUCGGGAA [Fam2.2 aminoacylation ribozyme variant]"
  tested-target: "biotinyl-Leu-oxazolone"
  class-label: "met"
- seq-string: "AUUCACCUAGGUGAUCGGGGG [Fam2.2 aminoacylation ribozyme variant]"
  tested-target: "biotinyl-Leu-oxazolone"
  class-label: "met"
- seq-string: "CUACUGCAUACAAUCGGUCUG [Fam1A.1 aminoacylation ribozyme variant]"
  tested-target: "biotinyl-Leu-oxazolone"
  class-label: "not met"
- seq-string: "CAACUUCAGACAAUCGGUCUG [Fam1A.1 aminoacylation ribozyme variant]"
  tested-target: "biotinyl-Leu-oxazolone"
  class-label: "not met"
- seq-string: "AUUAGACUGGUCAUCGAGUGA [Fam2.1 aminoacylation ribozyme variant]"
  tested-target: "biotinyl-Leu-oxazolone"
  class-label: "met"
- seq-string: "AUUACCCUGGUCAUCGGGUGA [Fam2.1 aminoacylation ribozyme variant]"
  tested-target: "biotinyl-Leu-oxazolone"
  class-label: "met"
- seq-string: "CCACACCACAAGCAAUCGGUC [Fam1B.1 aminoacylation ribozyme variant]"
  tested-target: "biotinyl-Leu-oxazolone"
  class-label: "not met"
- seq-string: "AUUCACCUAGGUCGUCGGGUG [Fam2.2 aminoacylation ribozyme variant]"
  tested-target: "biotinyl-Leu-oxazolone"
  class-label: "met"
- seq-string: "AAUUUUGCUAAUUGUCGCAAG [Fam3.1 aminoacylation ribozyme variant]"
  tested-target: "biotinyl-Leu-oxazolone"
  class-label: "met"
- seq-string: "CCACACUUGAAGCCAUCGGUC [Fam1B.1 aminoacylation ribozyme variant]"
  tested-target: "biotinyl-Leu-oxazolone"
  class-label: "not met"
- seq-string: "CUUCACCUAGGUCAUCGGGUU [Fam2.2 aminoacylation ribozyme variant]"
  tested-target: "biotinyl-Leu-oxazolone"
  class-label: "met"
